- System name: human P2X3 receptor (Homo sapiens (Human))
- Sequence (P56373 whole entry): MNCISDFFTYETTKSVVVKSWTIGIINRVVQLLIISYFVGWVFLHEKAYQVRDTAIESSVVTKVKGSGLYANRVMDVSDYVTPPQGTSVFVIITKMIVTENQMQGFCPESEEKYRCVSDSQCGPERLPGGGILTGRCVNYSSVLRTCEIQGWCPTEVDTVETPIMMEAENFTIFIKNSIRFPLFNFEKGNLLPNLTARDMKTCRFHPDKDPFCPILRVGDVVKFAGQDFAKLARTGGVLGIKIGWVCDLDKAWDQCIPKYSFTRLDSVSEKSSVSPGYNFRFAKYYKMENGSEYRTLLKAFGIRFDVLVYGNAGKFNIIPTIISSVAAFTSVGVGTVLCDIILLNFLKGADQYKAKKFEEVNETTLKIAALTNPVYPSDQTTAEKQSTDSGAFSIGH
- Experimental details: P2X3 receptor inhibition, ATP-evoked Fluo-3 calcium fluorescence (FDSS 3000)
- Condition set: C6BU-1 cell transfected with human P2X3 receptor gene; ATP-evoked Fluo-3 fluorescence
Could you mark each record TRUE if its IC50 falls strictly under 100 nM, and FALSE if it equals or exceeds it?

> print(dat)
                                   molecule  class.assignment
1  COc1ncccc1C1c2c(C(C)(C)C)n[nH]c2C(=O)N1c1ccc(SC)cc1 (centres unmarked) [II-007]              TRUE
2  CC(C)(C)c1n[nH]c2c1C(c1cccnc1OCCO)N(c1ccc(-c3ccoc3)cc1)C2=O (centres unmarked) [II-041]              TRUE
3  COc1ccccc1C1c2c(C(F)(F)F)n[nH]c2C(=O)N1c1ccc(-c2ccon2)cc1 (centres unmarked) [II-148]             FALSE
4  O=C1C(O)=C(S(=O)(=O)c2ccccc2)C(C2CCCCC2)N1c1ccc(-c2ccon2)cc1 (centres unmarked) [Compound I-482]             FALSE

These entries and their values trace back to patent US8575197B2.
